- Tested on: PC3-PIP tumor model
- Parameters: species or system mice
- experimental.parameters: mouse, in vivo
Numbered stars: 1 amine (or outer) side, 2 acyl side, 3 side chain; on linkers, the order of the positions; unused ones are H or OH. Bridge positions count the residues as written; N and C are the ends. Square brackets hold non-standard residues; d marks the D form. Peptide text beside a SMILES is read from it. * marks the point of attachment. DOTA = O=C(O)CN1CCN(CC(=O)O)CCN(CC(=O)*)CCN(CC(=O)O)CC1; Phe(4-Cl) = N[C@@H](Cc1ccc(Cl)cc1)C(=O)O; Ethylenediamine = C(CN[*:2])N[*:1]; NMeT = CN[C@H](C(=O)O)[C@@H](C)O; X1 = O=C(CC1CCN([*:1])CC1)[*:2]; Aad = N[C@@H](CCCC(=O)O)C(=O)O; Tle = CC(C)(C)[C@H](N)C(=O)O; Aib = CC(C)(N)C(=O)O
Each entry gets Condition not met if its Tumor AUC stays under 200 % ID/g*h, and Condition met if its Tumor AUC is 200 % ID/g*h or above.

Look over these answered cases.
CC(=O)NC(C)(C)C(=O)N[C@@H](Cc1ccc(Cl)cc1)C(=O)N[C@H]1CSSC[C@@H](C(=O)N[C@H](C(=O)NCCNC(=O)CN2CCN(CC(=O)O)CCN(CC(=O)O)CCN(CC(=O)O)CC2)C(C)(C)C)NC(=O)[C@H](CC(N)=O)NC(=O)C(C)(C)NC(=O)[C@H](CCCNC(=N)N)NC(=O)[C@H](CCCCN)NC1=O [PSM-0516] (Ac-[Aib][Phe(4-Cl)]CKR[Aib]NC[Tle]-{Ethylenediamine-DOTA}; disulfide 3-8) = Condition met
C[C@@H](O)[C@H](NC(=O)[C@@H](NC(=O)[C@@H]1CSSC[C@H](NC(=O)[C@H](Cc2ccccc2)NC(=O)C(C)(C)NC(=O)[C@@H](NC(=O)CC2CCN(C(=O)CN3CCN(CC(=O)O)CCN(CC(=O)O)CCN(CC(=O)O)CC3)CC2)[C@@H](C)O)C(=O)N[C@@H](CCCCN)C(=O)N[C@@H](CCCNC(=N)N)C(=O)NC(C)(C)C(=O)N[C@@H](CC(N)=O)C(=O)N1)C(C)(C)C)C(N)=O [PSM-0492] ({DOTA}-[X1]T[Aib]FCKR[Aib]NC[Tle]T-NH2; disulfide 5-10) = Condition not met
CC(C)[C@H](NC(=O)[C@@H]1CSSC[C@H](NC(=O)[C@H](Cc2ccc(Cl)cc2)NC(=O)C(C)(C)NC(=O)[C@@H](NC(=O)CC2CCN(C(=O)CN3CCN(CC(=O)O)CCN(CC(=O)O)CCN(CC(=O)O)CC3)CC2)[C@@H](C)O)C(=O)N[C@@H](CCCCN)C(=O)N[C@@H](CCCNC(=N)N)C(=O)NC(C)(C)C(=O)N[C@@H](CC(N)=O)C(=O)N1)C(=O)N(C)[C@H](C(N)=O)[C@@H](C)O [PSM-0377] ({DOTA}-[X1]T[Aib][Phe(4-Cl)]CKR[Aib]NCV[NMeT]-NH2; disulfide 5-10) = Condition not met
C[C@@H](O)[C@H](NC(=O)CC1CCN(C(=O)CN2CCN(CC(=O)O)CCN(CC(=O)O)CCN(CC(=O)O)CC2)CC1)C(=O)NC(C)(C)C(=O)N[C@@H](Cc1ccccc1)C(=O)N[C@H]1CSSC[C@@H](C(=O)N[C@H](C(=O)NCCN)C(C)(C)C)NC(=O)[C@H](CC(N)=O)NC(=O)C(C)(C)NC(=O)[C@H](CCCNC(=N)N)NC(=O)[C@H](CCCCN)NC1=O [PSM-0241] ({DOTA}-[X1]T[Aib]FCKR[Aib]NC[Tle]-Ethylenediamine; disulfide 5-10) = Condition met

Pending molecule:
### Prompt Does the reported Tumor AUC for C[C@@H](O)[C@H](NC(=O)[C@@H](NC(=O)[C@@H]1CSSC[C@H](NC(=O)[C@H](Cc2ccc(Cl)cc2)NC(=O)C(C)(C)NC(=O)[C@@H](NC(=O)CC2CCN(C(=O)CN3CCN(CC(=O)O)CCN(CC(=O)O)CCN(CC(=O)O)CC3)CC2)[C@@H](C)O)C(=O)N[C@@H](CCCCN)C(=O)N[C@@H](CCCC(N)=O)C(=O)NC(C)(C)C(=O)N[C@@H](CC(N)=O)C(=O)N1)C(C)(C)C)C(N)=O [PSM-0531] ({DOTA}-[X1]T[Aib][Phe(4-Cl)]CK[Aad](NH2)[Aib]NC[Tle]T-NH2; disulfide 5-10) fall at or above the 200 % ID/g*h mark?
### Response Condition not met
